// reported inhibition per item
Biological target: Protein disulfide-isomerase (Homo sapiens) (UniProt P07237)
Sequence (P07237 whole entry, looked up): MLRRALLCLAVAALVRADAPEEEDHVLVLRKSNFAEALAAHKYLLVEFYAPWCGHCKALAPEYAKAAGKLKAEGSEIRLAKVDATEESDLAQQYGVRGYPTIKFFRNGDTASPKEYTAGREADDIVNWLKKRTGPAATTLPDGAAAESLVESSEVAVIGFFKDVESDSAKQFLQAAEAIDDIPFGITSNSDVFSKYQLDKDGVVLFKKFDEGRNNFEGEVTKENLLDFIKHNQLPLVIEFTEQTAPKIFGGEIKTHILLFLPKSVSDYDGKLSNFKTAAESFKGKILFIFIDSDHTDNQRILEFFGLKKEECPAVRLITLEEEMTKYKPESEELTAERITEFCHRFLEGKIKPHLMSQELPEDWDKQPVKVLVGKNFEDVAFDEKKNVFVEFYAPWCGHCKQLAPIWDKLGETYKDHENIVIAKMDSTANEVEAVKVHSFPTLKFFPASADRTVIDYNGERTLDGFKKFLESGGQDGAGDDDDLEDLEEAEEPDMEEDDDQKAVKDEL
Assay: inhibitors of human PDI, primary screen, biochemical, turbidity, single point, plate reader (AID 588391);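 further: absorbance from insulin aggregation driven by PDI reduction with DTT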
Settings: PDI insulin aggregation turbidity, A650, 90 min; at 10 µM; hits give high values
Screen size: about 350,000 compounds; about 180 (0.051%) were called active. For the sample, actives were picked, then their nearest neighbours and some compounds at random.
Could you give me the number in %? Just the number is fine.

Solved entries:
MOLECULE | METRIC | MEASUREMENT
CC1(C(=O)NS(=O)(=O)c2cccc(F)c2)CCN1C(=O)Cc1cc(F)ccc1F (stereo not drawn) | inhibition | 9.62
COc1cncc(-c2cnc3sc(NCCc4ccccn4)nn23)c1 | inhibition | -1.86
Cc1cc(C)n2nc(C(=O)NC(C)(C)C)nc2n1 | inhibition | 0.598

**Q:** Quick one: inhibition of `Cc1cccc(CNC(=O)c2sc(=O)n(Cc3ccccc3C)c2C)c1` ?
**A:** -13.7

**Q:** Quick one: inhibition of O=C(NCc1ccc(F)cc1)c1cc(C2CCCCN2C(=O)c2cccs2)on1 (stereo not drawn) ?
**A:** -0.163

**Q:** Quick one: inhibition of CCOC(=O)C1CCCN(C(=O)c2ccc(N(C)C)cc2)CC1 (stereo not drawn) ?
**A:** -4.95

**Q:** Quick one: inhibition of `CC(C)Cn1cc(-c2cncc3nccn23)cn1` ?
**A:** -0.067

**Q:** Quick one: inhibition of COc1cccc(C(O)c2ncc(-c3ccc4ccccc4c3)[nH]2)c1 (stereo not drawn) ?
**A:** 7.38

**Q:** Quick one: inhibition of `COc1ccc(-c2coc3c(C(=O)NC(C)C)cccc23)c(C)c1` ?
**A:** -1.08

**Q:** Quick one: inhibition of `CC(=O)Nc1cc(-c2ccccc2F)cn2c(-c3cccc(C(F)(F)F)c3)cnc12` ?
**A:** 0.488

**Q:** Quick one: inhibition of `OCCN1CCN(c2ncnc3c2ncn3[C@H]2CN(Cc3ccco3)C[C@@H](CO)O2)CC1` ?
**A:** -4.02

**Q:** Quick one: inhibition of `Cc1cccc(C)c1Cn1c(C)c(C(=O)NCc2cccc(Cl)c2)sc1=O` ?
**A:** 12.4

**Q:** Quick one: inhibition of CCNC(=O)C1(C)CCN(C(=O)c2ccccc2)C1 (stereo not drawn) ?
**A:** -56.1

====

Biological target: Protein disulfide-isomerase (Homo sapiens) (UniProt P07237)
Experiment: inhibitors of human PDI, primary screen, biochemical, turbidity, single point, plate reader (AID 588391);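 further: absorbance from insulin aggregation driven by PDI reduction with DTT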
Settings: PDI insulin aggregation turbidity, A650, 90 min; at 10 µM; hits give high values
Out of some 350,000 compounds screened, about 180 (0.051%) were called active. The sample as a whole holds a higher share of actives than the screen did.
METRIC: inhibition (%)
Could you give me the number in %? Just the number is fine.

Solved entries:
COMPOUND | SCALE_UNIT | MEASUREMENT
OC(c1ccc(Cl)cc1)c1ncc(-c2ccc(Cl)cc2)[nH]1 (stereo not given) | % | -6.36
Cc1ccc(-c2cnc(C(O)c3cc(Cl)cc(Cl)c3)[nH]2)cc1 (stereo not given) | % | -2.73
COc1ccc(C2CC(c3cccc(OC)c3)=NN2c2ccc(S(N)(=O)=O)cc2)cc1 (stereo not given) | % | -2.45
Cc1nc2c(OCc3ccc(Cl)cc3)cccn2c1N(C)Cc1cccs1 | % | -1.78

**Q:** Quick one: inhibition of `CC(=O)Nc1cccc(-c2cc(NC=O)c3ncc(-c4ccc(F)c(Cl)c4)n3c2)c1` ?
**A:** -0.607

====

// reported inhibition per item
Target: Protein disulfide-isomerase (Homo sapiens) (UniProt P07237)
Assay: inhibitors of human PDI, primary screen, biochemical, turbidity, single point, plate reader (AID 588391);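 further: absorbance from insulin aggregation driven by PDI reduction with DTT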
Conditions: PDI insulin aggregation turbidity, A650, 90 min; at 10 µM; hits give high values
The whole screen tested about 350,000 compounds, of which about 180 (0.051%) were called active. The sample as a whole holds a higher share of actives than the screen did.
Could you give me the number in %? Just the number is fine.

Solved entries:
MOLECULE | METRIC | MEASUREMENT
CCC(=O)N1CCC(C)(C(=O)Nc2cc(OC)c(OC)c(OC)c2)C1 (stereo not given) | inhibition | -1.21
CCCNC(=O)c1cc(C2CCCCN2S(=O)(=O)c2cn(C)cn2)on1 (stereo not given) | inhibition | -5.28

**Q:** Quick one: inhibition of COc1ccc(NC(=O)C2(C)Cc3c(-c4cccc(NC(C)=O)c4)ccnc3O2)cc1 (stereo not given) ?
**A:** -2.98

**Q:** Quick one: inhibition of CC1(C(=O)NS(=O)(=O)c2ccc3ccccc3c2)CCN1C(=O)C1(c2ccc(Cl)cc2)CCC1 (stereo not given) ?
**A:** 8.48

**Q:** Quick one: inhibition of `O=C(Nc1ccc(N2CCOCC2)cc1)c1cccc2c(-c3ccc(F)c(F)c3)coc12` ?
**A:** 6.12

**Q:** Quick one: inhibition of `OC[C@@H]1CN(Cc2ccncc2)C[C@H](n2cnc3c(N4CCN(c5ccccc5)CC4)ncnc32)O1` ?
**A:** -1.41

**Q:** Quick one: inhibition of `CNc1cncc(-c2ccc(NS(C)(=O)=O)cc2)n1` ?
**A:** -0.527

**Q:** Quick one: inhibition of CC(=O)Nc1ccc(-c2ccnc3c2CC(C(=O)NC(C)C)O3)cc1 (stereo not given) ?
**A:** -7.94

**Q:** Quick one: inhibition of `COc1ccc(-c2cc(NC(C)=O)c3ncc(-c4cc(OC)c(OC)c(OC)c4)n3c2)cn1` ?
**A:** -21.1

**Q:** Quick one: inhibition of `CC(=O)c1ccc(-c2cnc3c(NC=O)cc(-c4cccc(NS(C)(=O)=O)c4)cn23)cc1` ?
**A:** 16.7

====

Target: Protein disulfide-isomerase (Homo sapiens) (UniProt P07237)
Experiment: inhibitors of human PDI, primary screen, biochemical, turbidity, single point, plate reader (AID 588391);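 further: absorbance from insulin aggregation driven by PDI reduction with DTT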
Settings: PDI insulin aggregation turbidity, A650, 90 min; at 10 µM; hits give high values
Out of some 350,000 compounds screened, about 180 (0.051%) were called active. Only a selection was taken, and actives are over-represented in it overall.
// reported inhibition per item
Could you give me the number in %? Just the number is fine.

Solved entries:
MOLECULE | inhibition / %
CCOC(=O)c1ccccc1NC(=O)COC(=O)C(Cc1c[nH]c2ccccc12)NC(C)=O (configuration not stated) | 5.96
O=C(CCc1n[nH]c(=O)[nH]c1=O)N/N=C/c1ccc(Br)o1 | 2.19
NC1=NC(=O)S/C1=C\c1ccc(O)cc1 | 43.5
COc1cc(NC(=O)c2cc(-c3ccc(F)cc3OC(C)C)n[nH]2)cc(OC)c1OC | -4.94
Cc1ccc(NS(=O)(=O)c2cc3c(cc2Br)NC(=O)CO3)cc1C | -4.51
CC1(C(=O)NCc2ccc3c(c2)OCO3)CCN1CCc1ccccc1 (configuration not stated) | 3.4
COCCNc1ncnc2c1ncn2[C@H]1CN(Cc2ccc(OC)cc2)C[C@@H](CO)O1 | -0.829
CCN(CCN(C)C)C(=O)c1ccc2nc(C)c(N(C)C(=O)CCc3ccccc3)n2c1 | 5.52

**Q:** Quick one: inhibition of CCCNC(=O)C1(C)CCN(Cc2csc(-c3ccc(Cl)cc3)n2)C1 (configuration not stated) ?
**A:** 14.3

**Q:** Quick one: inhibition of CC1(C(=O)NCc2ccc3c(c2)OCO3)CCN1C(=O)Cc1cccs1 (configuration not stated) ?
**A:** -7.14

**Q:** Quick one: inhibition of `CCc1nc2ccc(C(=O)NCc3ccc(OC)cc3)cn2c1N(CC)Cc1cccc(Br)c1` ?
**A:** 19.2

**Q:** Quick one: inhibition of `CC(C)(C)c1ccc(/C=C2\SC(=O)N=C2N)cc1` ?
**A:** 7.63

**Q:** Quick one: inhibition of `CCc1nc2c(OCc3ccc(Cl)cc3Cl)cccn2c1N(C)C(=O)C(C)C` ?
**A:** 1.84

**Q:** Quick one: inhibition of `CCCCN(C=O)c1c(CC)nc2c(OCCC3CCCCC3)cccn12` ?
**A:** -6.94

**Q:** Quick one: inhibition of `Cn1c(Nc2ccc(F)cc2)nc2cc(-c3ccsc3)sc2c1=O` ?
**A:** -4.93

**Q:** Quick one: inhibition of `O=C(CCC(=O)N/N=C/c1ccc(Br)o1)N/N=C/c1ccc(Br)o1` ?
**A:** -7.35

====

Target: Protein disulfide-isomerase (Homo sapiens) (UniProt P07237)
Assay: inhibitors of human PDI, primary screen, biochemical, turbidity, single point, plate reader (AID 588391);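 further: absorbance from insulin aggregation driven by PDI reduction with DTT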
Conditions: PDI insulin aggregation turbidity, A650, 90 min; at 10 µM; hits give high values
Hit rate of the full screen: of about 350,000 compounds, about 180 (0.051%) were called active. Many of the other results were omitted from the sample, so actives are more common in it than they were.
METRIC: inhibition (%)
Could you give me the number in %? Just the number is fine.

MOLECULE | SCALE_UNIT | inhibition
OC[C@@H]1CN(Cc2ccc(-c3ccccc3)cc2)C[C@H](n2cnc3c(NC4CCCC4)ncnc32)O1 | % | -2.96
COc1ccc(-c2csc(C(O)c3cccc(Cl)c3)n2)cn1 (stereo not given) | % | 8.11
CC1(C(=O)NS(=O)(=O)c2cccc(OC(F)F)c2)CCN1C(=O)C1CC1 (stereo not given) | % | -4.8
COc1ccc(S(=O)(=O)N2CCCCC2c2cc(C(=O)NCc3ccc(F)cc3)no2)cc1 (stereo not given) | % | -0.518

Let's switch to this molecule now.
**Q:** Quick one: inhibition of CC1(Oc2ccccc2-c2ccno2)CCN(Cc2ccc(-c3ccccc3)o2)C1 (stereo not given) ?
**A:** 15.2
